Each recorded value in this set is attributed to patent US20240018502A1.

Target: plasma purified human complement protein C3 (human) (UniProt P01024)
Sequence (P01024 23-667, chain 1 of 2): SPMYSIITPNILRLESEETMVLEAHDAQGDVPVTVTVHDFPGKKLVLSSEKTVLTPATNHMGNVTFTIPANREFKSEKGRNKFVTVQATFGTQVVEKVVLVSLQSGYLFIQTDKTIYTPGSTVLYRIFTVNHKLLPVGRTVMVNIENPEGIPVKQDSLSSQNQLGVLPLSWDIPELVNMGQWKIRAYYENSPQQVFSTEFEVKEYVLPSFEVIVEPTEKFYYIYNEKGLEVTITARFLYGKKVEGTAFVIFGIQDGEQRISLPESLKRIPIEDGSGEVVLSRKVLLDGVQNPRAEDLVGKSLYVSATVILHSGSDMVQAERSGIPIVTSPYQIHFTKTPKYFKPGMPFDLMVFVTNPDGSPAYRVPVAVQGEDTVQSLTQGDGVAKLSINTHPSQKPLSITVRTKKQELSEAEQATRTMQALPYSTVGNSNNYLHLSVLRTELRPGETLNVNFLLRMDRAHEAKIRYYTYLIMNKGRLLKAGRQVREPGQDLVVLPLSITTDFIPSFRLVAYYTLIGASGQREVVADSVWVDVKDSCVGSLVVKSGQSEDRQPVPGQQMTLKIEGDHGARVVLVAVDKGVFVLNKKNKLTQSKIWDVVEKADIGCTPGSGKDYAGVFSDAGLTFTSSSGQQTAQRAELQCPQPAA
Sequence (P01024 672-1663, chain 2 of 2): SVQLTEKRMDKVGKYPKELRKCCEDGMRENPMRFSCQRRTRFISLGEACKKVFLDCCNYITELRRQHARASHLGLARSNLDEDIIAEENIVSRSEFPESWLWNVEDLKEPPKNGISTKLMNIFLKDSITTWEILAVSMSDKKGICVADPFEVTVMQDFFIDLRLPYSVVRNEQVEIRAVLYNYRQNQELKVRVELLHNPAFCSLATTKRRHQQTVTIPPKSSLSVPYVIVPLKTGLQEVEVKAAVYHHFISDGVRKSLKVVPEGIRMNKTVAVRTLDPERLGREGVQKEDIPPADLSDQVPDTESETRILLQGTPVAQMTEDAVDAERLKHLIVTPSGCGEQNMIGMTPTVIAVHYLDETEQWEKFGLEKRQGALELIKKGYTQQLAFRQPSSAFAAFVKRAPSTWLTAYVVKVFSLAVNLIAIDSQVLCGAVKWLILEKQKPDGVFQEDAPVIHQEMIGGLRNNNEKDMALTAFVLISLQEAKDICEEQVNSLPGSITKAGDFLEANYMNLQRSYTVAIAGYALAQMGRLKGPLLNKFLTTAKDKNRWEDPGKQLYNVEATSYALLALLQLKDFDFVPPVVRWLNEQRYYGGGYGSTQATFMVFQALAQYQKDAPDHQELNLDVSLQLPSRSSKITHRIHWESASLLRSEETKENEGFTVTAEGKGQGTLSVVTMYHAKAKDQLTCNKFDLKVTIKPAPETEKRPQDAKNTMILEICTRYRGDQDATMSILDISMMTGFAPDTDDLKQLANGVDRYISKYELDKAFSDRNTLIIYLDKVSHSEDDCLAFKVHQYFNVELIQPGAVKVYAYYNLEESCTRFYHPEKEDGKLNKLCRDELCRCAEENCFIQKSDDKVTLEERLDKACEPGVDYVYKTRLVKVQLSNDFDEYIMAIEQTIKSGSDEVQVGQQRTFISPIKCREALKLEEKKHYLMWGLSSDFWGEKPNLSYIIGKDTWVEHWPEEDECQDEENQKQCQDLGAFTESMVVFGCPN
Assay: cell-based or functional assay
quantity: EC50 of hC3 cleavage
Please answer in the form of a number followed by its unit of measurement.

{"binder": "MTSP-1 Q38E/I41A/D60bH/ins97aV/F97D/T98P/F99L/C122S/Q192G/Q209L/D217H (enzyme) VVGGTDADEGEWPWQVSLHALGEGHACGASLISPNWLVSAAHCYIDHRGFRYSDPTQWTAFLGLHDQSQRSAPGVQERRLKRIISHPFFNDDVPLDYDIALLELEKPAEYSSMVRPISLPDASHVFPAGKAIWVTGWGHTQYGGTGALILQKGEIRVINQTTCENLLPQQITPRMMCVGFLSGGVDSCGGDSGGPLSSVEADGRIFLAGVVSWGHGCAQRNKPGVYTRLPLFRDWIKENTGV", "test_result": "10.2 nM"}
{"binder": "MTSP-1 H40R/I41H/C122S/G151N (enzyme) VVGGTDADEGEWPWQVSLHALGQGRHCGASLISPNWLVSAAHCYIDDRGFRYSDPTQWTAFLGLHDQSQRSAPGVQERRLKRIISHPFFNDFTFDYDIALLELEKPAEYSSMVRPISLPDASHVFPAGKAIWVTGWGHTQYGGTNALILQKGEIRVINQTTCENLLPQQITPRMMCVGFLSGGVDSCQGDSGGPLSSVEADGRIFQAGVVSWGDGCAQRNKPGVYTRLPLFRDWIKENTGV", "test_result": "59.6 nM"}

Switching to the query record.
Briefly, EC50 of hC3 cleavage measured for MTSP-1 Q38H/I41T/D60bV/F60eQ/F97T/ins97aE/T98G/F99L/C122S/Q175L/Q192G (enzyme) VVGGTDADEGEWPWQVSLHALGHGHTCGASLISPNWLVSAAHCYIDVRGQRYSDPTQWTAFLGLHDQSQRSAPGVQERRLKRIISHPFFNDTEGLDYDIALLELEKPAEYSSMVRPISLPDASHVFPAGKAIWVTGWGHTQYGGTGALILQKGEIRVINQTTCENLLPQLITPRMMCVGFLSGGVDSCGGDSGGPLSSVEADGRIFQAGVVSWGDGCAQRNKPGVYTRLPLFRDWIKENTGV : 4.93 nM
